Where these numbers come from: patent US9856216B2

# tested-system: TNIK (Homo sapiens)
# Construct: purchased Promega V4158
# Sequence (Q9UKE5 1-367 limits assumed): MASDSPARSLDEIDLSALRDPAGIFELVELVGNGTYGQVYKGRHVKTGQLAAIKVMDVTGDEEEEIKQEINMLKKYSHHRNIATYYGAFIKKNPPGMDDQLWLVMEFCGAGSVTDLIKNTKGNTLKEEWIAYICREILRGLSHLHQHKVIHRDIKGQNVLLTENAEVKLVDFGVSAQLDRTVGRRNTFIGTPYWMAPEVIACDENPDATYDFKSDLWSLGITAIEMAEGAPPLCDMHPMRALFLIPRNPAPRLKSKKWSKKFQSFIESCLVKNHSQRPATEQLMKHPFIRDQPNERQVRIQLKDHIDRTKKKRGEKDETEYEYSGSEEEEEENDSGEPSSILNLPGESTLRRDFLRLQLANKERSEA
# assay-notes: ADP-Glo Kinase Assay, inhibition activity on TNIK
# Format: biochemical
# measurement-setup: read-out: TNIK
pIC50: −log10 of the molar value.
experimental-endpoint: pIC50

Look over these answered cases.
> print(dat)
                           smiles.structure  experimental.endpoint  quantitative.result
1  COc1cccc(-c2ccc(NC(=O)c3ccco3)c3c2CNC3=O)c1OC                  pIC50                 7.27
2        N#CCCNc1ccc(-c2ccccc2)c2c1C(=O)NC2                  pIC50                 5.25
3  COc1ccccc1Nc1ccc(NC(=O)c2ccc(NCCN3CCCCC3)cc2)c2c1CNC2=O                  pIC50                 6.38
4  Cc1ccccc1C(=O)Nc1ccc(-c2ccccc2)c2c1C(=O)NC2                  pIC50                 4.84
5  COc1cccc(OC)c1-c1ccc(NC(=O)c2ccccc2)c2c1CNC2=O                  pIC50                 5.66

[P] O=C(Nc1ccc(Cc2ccccc2)c2c1C(=O)NC2)c1ccc(F)cc1
[Q] O=C(Nc1ccc(Nc2cc[nH]n2)c2c1C(=O)NC2)c1ccc(F)cc1
[R] COc1cccc(-c2ccc(NC(=O)c3ccc(F)cc3)c3c2CNC3=O)c1O
[S] O=C(Nc1ccc(O)c2c1C(=O)NC2)c1ccc(F)cc1
[T] COc1ccccc1-c1ccc(NC(=O)c2ccc(NCCCN3CCCC3)cc2)c2c1CNC2=O
Order by pIC50, ascending. // format: requested-order list of labels
P, Q, S, R, T

[A] COc1ccccc1NC(=O)Nc1ccc(-c2ccccc2)c2c1C(=O)NC2
[B] Cc1cccc(C(=O)Nc2ccc(-c3ccccc3)c3c2C(=O)NC3)c1
Name the one with the greater pIC50 value, either A or B as given. // return label of chosen record
B
(B: 5.55, A: 4.78)
